tested on: Rotala indica; test: Pre-emergence herbicidal activity against Rotala indica at 500 g a.i/ha measured after 14 days; type: functional, organism-based
The source made the active and inactive calls. The calls are words filed in the database; no cut-off is given here.
Your reply should match one of these outcome classes. active, inactive

Exam item: # lookup: test call for `CCONC(=O)c1cn(C(C)(C)C)nc1OCc1cccc(C(F)(F)F)c1`
Marked response: inactive

Exam item: # lookup: test call for `Cn1cc(C(=O)NOc2ccc(C(F)(F)F)cc2)c(OCc2cccc(C(F)(F)F)c2)n1`
Marked response: active

Exam item: # lookup: test call for `Cn1cc(C(=O)NOc2cccc(Cl)c2)c(OCc2cccc(C(F)(F)F)c2)n1`
Marked response: active

Exam item: # lookup: test call for `CCN(C(=O)c1cn(C)nc1OCc1cccc(C(F)(F)F)c1)C1CCCCC1`
Marked response: inactive

Exam item: # lookup: test call for `Cn1cc(C(=O)NOc2ccc(F)cc2)c(OCc2cccc(C(F)(F)F)c2)n1`
Marked response: active

Exam item: # lookup: test call for `Cn1cc(C(=O)Nc2ccc(F)cc2F)c(OCc2cccc(C(F)(F)F)c2)n1`
Marked response: active

Exam item: # lookup: test call for `CONC(=O)c1cn(C)nc1OCc1cccc(C(F)(F)F)c1`
Marked response: active

Exam item: # lookup: test call for `CCCn1cc(C(=O)NOCC)c(OCc2cccc(C(F)(F)F)c2)n1`
Marked response: inactive

Exam item: # lookup: test call for `Cn1cc(C(=O)NOc2ccc(F)cc2F)c(OCc2cccc(C(F)(F)F)c2)n1`
Marked response: active

###

system: Oryza sativa; assay: Phytotoxicity against Oryza sativa cv. Koshihikari (rice) at 500 g a.i/ha measured after 14 days; format: organism-based; conditions: in vivo, 336 h
Readout: Activity

Previously resolved entries follow.
>  <Cpd smiles>
Cn1cc(C(=O)NOc2ccc(F)cc2F)c(OCc2cccc(C(F)(F)F)c2)n1

>  <Activity>
Non-toxic

$$$$
>  <Cpd smiles>
Cn1cc(C(=O)Nc2cccc(Cl)c2)c(OCc2cccc(C(F)(F)F)c2)n1

>  <Activity>
Non-toxic

$$$$
>  <Cpd smiles>
Cn1cc(C(=O)Nc2ccccc2)c(OCc2cccc(C(F)(F)F)c2)n1

>  <Activity>
Non-toxic

$$$$
>  <Cpd smiles>
Cn1nc(OCc2cccc(C(F)(F)F)c2)c(C(=O)NOc2ccc(F)cc2F)c1Cl

>  <Activity>
Non-toxic

$$$$
>  <Cpd smiles>
Cn1cc(C(=O)Nc2ccc(C(C)(C)C)cc2)c(OCc2cccc(C(F)(F)F)c2)n1

>  <Activity>
Non-toxic

$$$$

Exam item: Give the reported Activity for `CCONC(=O)c1cn(C(F)F)nc1OCc1cccc(C(F)(F)F)c1` (system: Oryza sativa).
Marked response: Non-toxic

Exam item: Give the reported Activity for `CCONC(=O)c1cn(CC)nc1OCc1cccc(C(F)(F)F)c1` (system: Oryza sativa).
Marked response: Non-toxic

Exam item: Give the reported Activity for `CCONC(=O)c1cn(C(C)(C)C)nc1OCc1cccc(C(F)(F)F)c1` (system: Oryza sativa).
Marked response: Non-toxic

Exam item: Give the reported Activity for `CCCN(OCC)C(=O)c1cn(C)nc1OCc1cccc(C(F)(F)F)c1` (system: Oryza sativa).
Marked response: Non-toxic

###

tested on: Rotala indica; experiment: Pre-emergence herbicidal activity against Rotala indica at 500 g a.i/ha measured after 14 days; assay type: functional, organism-based
Calls of active or inactive are those of the source. The calls are words filed in the database; no cut-off is given here.
Your reply should match one of these outcome classes. active, inactive

Illustrative cases are given below, each with its answer.
>  <Cpd smiles>
Cn1cc(C(=O)Nc2ccc(C(C)(C)C)cc2)c(OCc2cccc(C(F)(F)F)c2)n1

>  <Class assignment>
inactive

$$$$
>  <Cpd smiles>
CCONC(=O)c1cn(CC)nc1OCc1cccc(C(F)(F)F)c1

>  <Class assignment>
active

$$$$

Exam item: # lookup: test call for `CCCN(OCC)C(=O)c1cn(C)nc1OCc1cccc(C(F)(F)F)c1`
Marked response: active

Exam item: # lookup: test call for `Cn1cc(C(=O)NCc2cccc(Cl)c2)c(OCc2cccc(C(F)(F)F)c2)n1`
Marked response: inactive

Exam item: # lookup: test call for `Cn1cc(C(=O)Nc2ccc(S(C)(=O)=O)cc2)c(OCc2cccc(C(F)(F)F)c2)n1`
Marked response: inactive
